Assay: Volume of distribution of FITC-Elohaes compared with Evans Blue labelled albumin in healthy and endotoxic newborn piglets
Settings: pig, in vivo, iv, 1 mg/kg, VD, healthy newborn piglets, approx 1.0 mg/kg, individual piglets and mean
Procedure: Seventeen piglets were used in this study. The animals were randomised into two groups, a healthy (control) group and an Escherichia coli (endotoxic) group. The animals of the endotoxic group received a bolus injection of E. coli (1.667 μg/kg), followed by a continuous infusion of E. coli (1.667 μg/kg/hr) throughout the experiment. The control group received the same dose of isotonic saline injection and infusion. […]
Parameter measured: Vd (L/kg)
Unit L/kg implied. Number only.

// returns reported Vd for input "Cc1cc(-c2ccc(/N=N/c3ccc4c(S(=O)(=O)O)cc(S(=O)(=O)O)c(N)c4c3O)c(C)c2)ccc1/N=N/c1ccc2c(S(=O)(=O)O)cc(S(=O)(=O)O)c(N)c2c1O"
0.0896

Where do these numbers come from? They come from patent US6355624B1.
